# ASSAY EXPLANATION: modulators of CIT2-GFP expression in yeast, confirmation, S. cerevisiae, GFP fusion, cherry picks, mother/daughter gates (AID 2274)
# APPLIED CONDITIONS: S. cerevisiae CIT2-GFP strain, flow cytometry, 3 h; measured here: daughter cell gate; at 10 µM; stronger effect = higher value
MEASUREMENT KIND: GFP response, % of DMSO (%)
Answers are plain numbers, in %.

{"columns": ["COMPOUND", "GFP response, % of DMSO [%]"],
 "data": [
  ["C/C(=N\\NC(=O)c1ccc(Cl)cc1)c1cccc(NC(=O)C(C)C)c1", 101],
  ["CCOc1ccc(Nc2ccc(C(=O)O)cc2[N+](=O)[O-])cc1", 95.6],
  ["COc1cccc(/C=N\\NC(=O)c2cc(OCC(F)(F)F)ccc2OCC(F)(F)F)c1", 101],
  ["O=C(CSc1nnc(C2COc3ccccc3O2)o1)N1CCCC1 (stereo not drawn)", 111],
  ["COC(=O)Cc1ccc(OCc2ccc(Cl)nc2)cc1", 94.6]
]}

Could I get GFP response, % of DMSO for every one of these entries?
1. Cc1ccc(S(=O)(=O)N(Cc2ccc(F)cc2)Cc2ccco2)cc1
2. Cc1cc(N)ccc1NC(=O)c1ccccc1
3. O=C(/C=C/c1c(F)cccc1Cl)c1ccc(F)cc1
4. Cc1ccccc1NC(=O)c1ccccc1
5. COc1ccccc1N1C(=O)c2cccc3c(C(=O)O)ccc(c23)C1=O
6. O=C(O)CCC(=O)Nc1ccc(S(=O)(=O)c2ccc(NC(=O)CCC(=O)O)cc2)cc1

Result:
1. 99.3
2. 101
3. 129
4. 99.1
5. 101
6. 99.3

Could I get GFP response, % of DMSO for every one of these entries?
1. Cn1c(=O)c2ccccc2n(Cc2cccc(F)c2)c1=O
2. CCC(=O)N/C(N)=N/c1nc2ccccc2o1

Result:
[95.8, 97.2]

Could I get GFP response, % of DMSO for every one of these entries?
1. CCn1c(/C=C/c2ccc([N+](=O)[O-])o2)nc2ccccc2c1=O
2. Cc1cccn2c(=O)c(/C=C(\C#N)C(=O)NCc3ccco3)c(N3CCC(C(N)=O)CC3)nc12

Result:
289
95.2

Could I get GFP response, % of DMSO for every one of these entries?
1. O=C(O)c1ccc2c3c(ncnc13)-c1ccccc1C2=O
2. CN1CCN(/N=C/c2c3ccccc3c(Cl)c3ccccc23)CC1
3. COCCN(CCOC)S(=O)(=O)c1ccc(C(=O)Nc2nnc(C3CC3)o2)cc1
4. CCOC(=O)C1(CCCc2ccccc2)CCN(C(=O)c2cc(C)nn2CC)CC1
5. Cc1ccc(-n2nc(C)c3c(C)c(CCC(=O)O)c(C)nc32)cc1
6. CCOc1ccccc1N1C(=O)CC(Sc2ncccc2C(=O)O)C1=O (stereo not drawn)

Result:
1. 105
2. 102
3. 105
4. 104
5. 101
6. 105

Could I get GFP response, % of DMSO for every one of these entries?
1. S=c1[nH]nc(NCCCN2CCOCC2)s1
2. CCCc1[nH]nc2c1C1(C(=O)N(CC)c3ccccc31)C(C#N)=C(N)O2 (stereo not drawn)

Result:
1: 100; 2: 99.1

----------
# ASSAY EXPLANATION: LAP4-GFP expression modulators in yeast, confirmation, cell-based, cherry picks, flow cytometry, mother/daughter gates (AID 2271);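 also: ratio of sample to DMSO plate mean so 100% equals DMSO level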
# APPLIED CONDITIONS: S. cerevisiae LAP4-GFP strain, 3 h, at 10 µM, 100 means same as DMSO control
The source made the active and inactive calls.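 How the source made its calls: active means GFP response above 150% of the DMSO control; inconclusive means fewer than 70 events counted in any yeast strain; inactive means the rest.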
Write down one outcome, taken from active, inactive

{"columns": ["MOLECULE", "LABEL"],
 "data": [
  ["COc1ccccc1/C=C/C=N/NC(=O)c1cccs1", "inactive"],
  ["O=C(OCc1cccc([N+](=O)[O-])c1)c1cnccn1", "inactive"],
  ["CCCc1[nH]nc2c1C1(C(=O)N(CC)c3ccccc31)C(C#N)=C(N)O2 (stereo unspecified)", "inactive"],
  ["O=c1[nH]c(CN2CCCCC2)nc2c1C1(CCCCC1)Cc1ccccc1-2", "inactive"],
  ["Clc1ccccc1N=C1NN=C(c2cccs2)CS1", "inactive"]
]}

Ask: // return assay outcome for "NS(=O)(=O)c1ccc(Sc2ccccn2)c([N+](=O)[O-])c1"
Result: inactive

Ask: // return assay outcome for "COc1cccc(/C=N\NC(=O)c2cc(OCC(F)(F)F)ccc2OCC(F)(F)F)c1"
Result: inactive

Ask: // return assay outcome for O=C1c2ccccc2C2=Nc3ccccc3SC(c3cccc(F)c3)C12 (stereo unspecified)
Result: inactive

Ask: // return assay outcome for "O=C(N/N=C/c1ccc(-c2ccc(Br)cc2)o1)c1ccc2c(c1)OCO2"
Result: inactive

Ask: // return assay outcome for "Cc1[nH]c(-c2ccccn2)nc(=S)c1Cl"
Result: active

Ask: // return assay outcome for "CC(=O)Nc1ccc(NC(=O)CSc2ncc(C(=O)Nc3ccccc3)c(=O)n2C)cc1"
Result: inactive
